Assay: Acute toxicity (Litchfield and Wilcoxon)
Conditions: rat, in vivo, po; starved 16 h; deaths within 48 h
METRIC_NAME: LD50 at 48 h (mg/kg)
Unit mg/kg implied. Number only.

Asked: # input compound: Cl.c1ccc2c(c1)ncc1ncsc12 [Thiazolo[4,5-c]quinoline-hydrochloride, thiazolo[4,5-c]quinoline-hydrochloride] ; wanted: its LD50 at 48 h
Given back: 350

---

Assay: Acute toxicity (Litchfield and Wilcoxon)
Settings: rat, in vivo, iv; deaths within 48 h
METRIC_NAME: LD50 at 48 h (mg/kg)
Report the value in mg/kg with no unit label.

Asked: What value of LD50 at 48 h has been reported for the following compound? Cl.c1ccc2c(c1)ncc1ncsc12 [Thiazolo[4,5-c]quinoline-hydrochloride, thiazolo[4,5-c]quinoline-hydrochloride]
Given back: 55
